Biological target: T1, human interleukin 13 receptor subunit alpha 2 (IL-13RA2) (human, UniProt Q14627 27-380)
T1 construct: whole, on cells; also called IL-13Rα2; CD213A2
T1 sequence (looked up): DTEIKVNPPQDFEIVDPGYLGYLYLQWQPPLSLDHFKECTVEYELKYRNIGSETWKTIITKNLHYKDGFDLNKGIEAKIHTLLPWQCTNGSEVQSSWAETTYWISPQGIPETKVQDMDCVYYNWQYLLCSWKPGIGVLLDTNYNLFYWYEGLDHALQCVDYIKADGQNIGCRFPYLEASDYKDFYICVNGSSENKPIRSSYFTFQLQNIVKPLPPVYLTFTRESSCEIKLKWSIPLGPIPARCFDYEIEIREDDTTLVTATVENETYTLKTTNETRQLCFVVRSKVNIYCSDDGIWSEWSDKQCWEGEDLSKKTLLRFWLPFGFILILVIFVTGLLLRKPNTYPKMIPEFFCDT
Test: FACS on A375 cells
pEC50: −log10 of the molar value.
Assay endpoint: pEC50

>  <Binder>
74B5E4 (antibody, V domains shown, purified mouse antibody) VH: EVKLVESGGGLVKPGGSLRLSCAASGFTFSTYGMSWVRQTPEKRLEWVATISGGGSYTYYPDSVKGRFTISRDNAKNNLYLQMSSLRSEDTALYYCARRDLRSAMDYWGQGTSVTVSS VL: DIVMTQSQKFMSTSVGDRVSVTCKASQNVDINVAWYQQKPGQSPKALIYSASYRYSGVPDRFTGSGSGTDFTLTISNVQSEDLAEYFCQQYNTYPLTFGGGTKLEIK

>  <Observed measurement>
9.22

$$$$

src = patent US20250163164A1
